This collection of values is drawn from patent US20240261333A1.

# tested target: T1, B3GNT2 (Homo sapiens, UniProt Q9NY97)
# T1 construct: The respective ORFs of candidate genes [CD274 (NM_014143), MCL1 (NM_021960), JUNB (NM_002229), and B3GNT2 (NM_006577)] were synthesized; expressed in transfected cells; host or cells: A375 melanoma cells (lentiviral ORF overexpression)
# T1 sequence (Q9NY97 1-397): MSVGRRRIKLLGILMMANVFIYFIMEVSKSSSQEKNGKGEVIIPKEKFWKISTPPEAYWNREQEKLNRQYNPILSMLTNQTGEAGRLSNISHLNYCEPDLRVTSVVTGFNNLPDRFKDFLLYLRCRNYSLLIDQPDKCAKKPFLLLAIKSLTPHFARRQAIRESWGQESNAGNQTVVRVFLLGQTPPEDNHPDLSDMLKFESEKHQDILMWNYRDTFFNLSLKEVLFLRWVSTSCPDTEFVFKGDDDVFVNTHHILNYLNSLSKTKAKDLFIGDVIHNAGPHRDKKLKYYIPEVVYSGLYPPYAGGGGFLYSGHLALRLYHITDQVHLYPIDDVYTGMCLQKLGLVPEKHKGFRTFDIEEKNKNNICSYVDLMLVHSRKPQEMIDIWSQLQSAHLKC
# assay notes: Co-IP of FLAG-tagged B3GNT2 followed by mass spectrometry
# Type: cell-based
# condition context: Co-IP with FLAG antibody, N-terminally FLAG-tagged B3GNT2; mass spectrometry count, unit not given
# N-term FLAG values compiled below
I only need the number, thanks.

Sample records with N-term FLAG:
PRDX2 (protein) ASGNARIGKPAPDFKATAVVDGAFKEVKLSDYKGKYVVLFFYPLDFTFVCPTEIIAFSNRAEDFRKLGCEVLGVSVDSQFTHLAWINTPRKEGGLGPLNIPLLADVTRRLSEDYGVLKTDEGIAYRGLFIIDGKGVLRQITVNDLPVGRSVDEALRLVQAFQYTDEHGEVCPAGWKPGSDTIKPNVDDSKEYFSKHN | 9
SRSF7 (protein) MSRYGRYGGETKVYVGNLGTGAGKGELERAFSYYGPLRTVWIARNPPGFAFVEFEDPRDAEDAVRGLDGKVICGSRVRVELSTGMPRRSRFDRPPARRPFDPNDRCYECGEKGHYAYDCHRYSRRRRSRSRSRSHSRSRGRRYSRSRSRSRGRRSRSASPRRSRSISLRRSRSASLRRSRSGSIKGSRYFQSPSRSRSRSRSISRPRSSRSKSRSPSPKRSRSPSGSPRRSASPERMD | 2
CD70 (protein) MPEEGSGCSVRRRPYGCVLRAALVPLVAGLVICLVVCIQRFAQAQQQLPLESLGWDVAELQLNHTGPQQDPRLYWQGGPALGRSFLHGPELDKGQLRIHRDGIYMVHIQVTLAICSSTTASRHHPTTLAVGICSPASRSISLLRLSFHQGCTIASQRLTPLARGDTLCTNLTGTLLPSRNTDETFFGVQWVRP | 0
SPRR1A (protein) MNSQQQKQPCTPPPQPQQQQVKQPCQPPPQEPCIPKTKEPCHPKVPEPCHPKVPEPCQPKVPEPCQPKVPEPCPSTVTPAPAQQKTKQK | 4
DPM1 (protein, UniProt O60762 2-260, looked up) Dolichol-phosphate …: ASLEVSRSPRRSRRELEVRSPRQNKYSVLLPTYNERENLPLIVWLLVKSFSESGINYEIIIIDDGSPDGTRDVAEQLEKIYGSDRILLRPREKKLGLGTAYIHGMKHATGNYIIIMDADLSHHPKFIPEFIRKQKEGNFDIVSGTRYKGNGGVYGWDLKRKIISRGANFLTQILLRPGASDLTGSFRLYRKEVLEKLIEKCVSKGYVFQMEMIVRARQLNYTIGEVPISFVDRVYGESKLGGNEIVSFLKGLLTLFATT | 4

get_value(item= PSMB6 (protein) TTIMAVQFDGGVVLGADSRTTTGSYIANRVTDKLTPIHDRIFCCRSGSAADTQAVADAVTYQLGFHSIELNEPPLVHTAASLFKEMCYRYREDLMAGIIIAGWDPQEGGQVYSVPMGGMMVRQSFAIGGSGSSYIYGYVDATYREGMTKEECLQFTANALALAMERDGSSGGVIRLAAIAESGVERQVLLGDQIPKFAVATLPPA , readout=N-term FLAG) returns 5

// N-term FLAG value for SLC25A10 (protein) MAAEARVSRWYFGGLASCGAACCTHPLDLLKVHLQTQQEVKLRMTGMALRVVRTDGILALYSGLSASLCRQMTYSLTRFAIYETVRDRVAKGSQGPLPFHEKVLLGSVSGLAGGFVGTPADLVNVRMQNDVKLPQGQRRNYAHALDGLYRVAREEGLRRLFSGATMASSRGALVTVGQLSCYDQAKQLVLSTGYLSDNIFTHFVASFIAAAGDEPPPQGGCATFLCQPLDVLKTRLMNSKGEYQGVFHCAVETAKLGPLAFYKGLVPAGIRLIPHTVLTFVFLEQLRKNFGIKVPS : 5

Reported N-term FLAG for PIP (protein) QDNTRKIIIKNFDIPKSVRPNDEVTAVLAVQTELKECMVVKTYLISSIPLQGAFNYKYTACLCDDNPKTFYWDFYTNRTVQIAAVVDVIRELGICPDDAAVIPIKNNRFYTIEILKVE was 4

Measured N-term FLAG, SSR1 (protein) VLFRGGPRGLLAVAQDLTEDEETVEDSIIEDEDDEAEVEEDEPTDLVEDKEEEDVSGEPEASPSADTTILFVKGEDFPANNIVKFLVGFTNKGTEDFIVESLDASFRYPQDYQFYIQNFTALPLNTVVPPQRQATFEYSFIPAEPMGGRPFGLVINLNYKDLNGNVFQDAVFNQTVTVIEREDGLDGETIFMYMFLAGLGLLVIVGLHQLLESRKRKRPIQKVEMGTSSQNDVDMSWIPQETLNQINKASPRRLPRKRAQKRSVGSDE : 3

Note to self: N-term FLAG recorded for FAM3A (protein) FPRIQQLFTSPESSVTAAPRARKYKCGLPQPCPEEHLAFRVVSGAANVIGPKICLEDKMLMSSVKDNVGRGLNIALVNGVSGELIEARAFDMWAGDVNDLLKFIRPLHEGTLVFVASYDDPATKMNEETRKLFSELGSRNAKELAFRDSWVFVGAKGVQNKSPFEQHVKNSKHSNKYEGWPEALEMEGCIPRRSTAS was 9

GET /value?item= ARF4 (protein) GLTISSLFSRLFGKKQMRILMVGLDAAGKTTILYKLKLGEIVTTIPTIGFNVETVEYKNICFTVWDVGGQDRIRPLWKHYFQNTQGLIFVVDSNDRERIQEVADELQKMLLVDELRDAVLLLFANKQDLPNAMAISEMTDKLGLQSLRNRTWYVQATCATQGTGLYEGLDWLSNELSKR &field=N-term FLAG returns 4
